Molecular target: wild-type ABL kinase domain (Homo sapiens, UniProt P00519)
Construct: ABL kinase domain (corresponding to residues 229-512); GST (N, cleaved yes); PreScission cleavage site (N, cleaved yes); made in house; host or cells: High5 insect cells (baculovirus)
Sequence (P00519 229-512): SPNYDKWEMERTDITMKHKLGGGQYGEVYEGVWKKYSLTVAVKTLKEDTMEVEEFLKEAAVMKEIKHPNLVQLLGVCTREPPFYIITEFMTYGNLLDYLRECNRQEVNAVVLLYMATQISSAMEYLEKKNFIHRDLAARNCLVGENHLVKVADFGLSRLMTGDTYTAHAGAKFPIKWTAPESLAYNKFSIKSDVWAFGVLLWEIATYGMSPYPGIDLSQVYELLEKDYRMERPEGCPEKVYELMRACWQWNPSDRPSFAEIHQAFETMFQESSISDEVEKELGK
Experiment: ATP site-dependent displacement assay, indolinone probe of 3.2
Format: binding
Conditions: Table 4 validation; probe 3.2 at 3.3 μM
MEASURED ENDPOINT: pKd
FYI, pKd means -log10 of a concentration in mol per litre.

Param item = Nc1ncnc2c1ncn2[C@@H]1O[C@H](COP(=O)(O)OP(=O)(O)OP(O)(O)=S)[C@@H](O)[C@H]1O [ATPγS, reference compound] ; retrieve measured pKd.
5.32

FYI, the data here is from patent US7803829B2.
